B1: tRNA (parent)
chain: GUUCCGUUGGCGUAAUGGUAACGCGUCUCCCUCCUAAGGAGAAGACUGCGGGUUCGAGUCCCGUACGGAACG

Variants of: B1
experiment_description: yeast fitness relative to wild type (ratio to wild type); higher = fitter; tRNA-Arg(CCU), competitive growth, 37 C, YPD
Variants at the floor of the assay were thinned out.
reported_property: yeast fitness

[[record]]
mutation_id = "U35A C49G C60A"
meas_value = "≤ 0.5"

[[record]]
mutation_id = "C11A G25C C29U A65U"
meas_value = "≤ 0.5"

[[record]]
mutation_id = "C5G G52C C66U"
meas_value = "≤ 0.5"

[[record]]
mutation_id = "U7G C11U G12C C33U G63C G68U"
meas_value = "≤ 0.5"

[[record]]
mutation_id = "U7G A21U A40G G67A"
meas_value = "≤ 0.5"

[[record]]
mutation_id = "G18C U53C C61U"
meas_value = "≤ 0.5"

[[record]]
mutation_id = "G6C C33U G52C C55A"
meas_value = "≤ 0.5"

[[record]]
mutation_id = "A14C U16C C62U A65U"
meas_value = "≤ 0.5"

[[record]]
mutation_id = "U3A A15G C24A"
meas_value = "≤ 0.5"

[[record]]
mutation_id = "A15C U28A C34G C55A A57U U59C C60U"
meas_value = "≤ 0.5"

[[record]]
mutation_id = "C5U A20U A45C C60U C61A"
meas_value = "≤ 0.5"

[[record]]
mutation_id = "C27G C30U C46A"
meas_value = 0.655

[[record]]
mutation_id = "U16G G18C U59A A65U"
meas_value = 0.687

[[record]]
mutation_id = "C4G C5G C34G A57G A65G C66U"
meas_value = "≤ 0.5"

[[record]]
mutation_id = "A15G G18A G48C C61A"
meas_value = "≤ 0.5"

[[record]]
mutation_id = "U3A C4G G9A C11G A45U"
meas_value = "≤ 0.5"

[[record]]
mutation_id = "C33U U35C"
meas_value = 0.579

[[record]]
mutation_id = "A14G C27U U47A C62U C66U"
meas_value = "≤ 0.5"

[[record]]
mutation_id = "U7A C22G C30U A37G A70G"
meas_value = 0.563

[[record]]
mutation_id = "C29G G41C A65U"
meas_value = "≤ 0.5"

[[record]]
mutation_id = "G23C C27G C31G"
meas_value = 0.608

[[record]]
mutation_id = "G9C G23C"
meas_value = 0.573

[[record]]
mutation_id = "C11U A43U"
meas_value = 0.907

[[record]]
mutation_id = "G9C A14U C24G U35G G50C"
meas_value = "≤ 0.5"

[[record]]
mutation_id = "A21U C29G G63A"
meas_value = 0.618

[[record]]
mutation_id = "C29G G39C U47A"
meas_value = 0.978

[[record]]
mutation_id = "G10A G17A C29A C34G A43C C60G"
meas_value = "≤ 0.5"

[[record]]
mutation_id = "G6C U26C C31A G38C"
meas_value = "≤ 0.5"

